- assay.overview: Anodic peak potential by cyclic voltammetry
- Type: physicochemical
- condition.context: 1.0 mM compound in 100 mM TRIS‐buffer (pH 7.4)
Classes (Anodic peak potential E pa): low bracket = under 500 mV, middle bracket = from 500 mV up to 600 mV, high bracket = 600 mV and over

[[record]]
compound = "Nc1nc(SCc2ccc(F)cc2)ccc1NC(=O)c1ccc(F)c(F)c1"
category_label = "low bracket"


Which category fits this record: CCOC(=O)Nc1ccc(SCc2ccc(-c3ccccc3)cc2)nc1N
low bracket

Categorize the following entry: CCOC(=O)Nc1ccc([S+]([O-])Cc2ccc(-c3ccccc3)cc2)nc1N (stereo not drawn)
high bracket

###

- assay.overview: LogD7.4 determination from HPLC retention times with calibration curve
- Type: physicochemical
- condition.context: pH 7.4
parameter.measured: chromatographic logD
Give a plain numeric answer without units written out.

Would you please look over these solved cases?
[[record]]
compound = "CCOC(=O)Nc1ccc([S+]([O-])Cc2ccc(F)cc2)nc1C (centres unmarked)"
recorded_value = 3.02

[[record]]
compound = "CCOC(=O)Nc1ccc([S+]([O-])Cc2ccc(-c3ccccc3)cc2)nc1N (centres unmarked)"
recorded_value = 3.72

[[record]]
compound = "CNc1nc(SCc2ccccc2)ccc1NC(=O)Cc1cc(F)cc(F)c1"
recorded_value = 4.27


Quick check: chromatographic logD of CCOC(=O)Nc1ccc(SCc2ccc(-c3ccccc3)cc2)nc1N ?
4.34

Can you share its chromatographic logD? I mean this compound: CCOC(=O)Nc1ccc(NCc2ccc(F)cc2)nc1N [Compound 1, Flupirtine, reference compound]
2.96

###

- Test system: HEP‐G2 cells
- assay.overview: MTT cell viability assay, HEP-G2 cells
- Format: cell-based, human
- condition.context: HEP‐G2 cells; MTT; 48 h exposure
parameter.measured: LD25 (µM)
Output spec: scalar in µM, unitless text.

See these solved cases before continuing.
[[record]]
molecule = "CCOC(=O)Nc1ccc(SCc2ccc(F)cc2)nc1C"
recorded_value = 25

[[record]]
molecule = "CCOC(=O)Nc1ccc(NCc2ccc(F)cc2)nc1N [Compound 1, Flupirtine, reference compound]"
recorded_value = 74

[[record]]
molecule = "Nc1nc(SCc2ccc(F)cc2)ccc1NC(=O)c1ccc(F)c(F)c1"
recorded_value = 4


Next up:
Look up LD25 for this molecule: CNc1nc(SCc2ccccc2)ccc1NC(=O)Cc1cc(F)cc(F)c1
4

###

As shown below, each of these compounds has a reported Tox./Act. (toxicity/activity ratio, safety index) value.
- Tested on: HEP‐G2 cells
- assay.overview: MTT cell viability assay, HEP-G2 cells
- Format: cell-based, human
- condition.context: average LD25 (48 h, HEP‐G2) divided by average EC50 (KV7.2/3)
Reply briefly: the number, and no unit.

[[record]]
compound = "Nc1nc(SCc2ccc(F)cc2)ccc1NC(=O)c1ccc(F)c(F)c1"
recorded_value = 15


Name the reported Tox./Act. (toxicity/activity ratio, safety index) value associated with the compound CNc1nc(SCc2ccccc2)ccc1NC(=O)Cc1cc(F)cc(F)c1
267

Find the recorded Tox./Act. (toxicity/activity ratio, safety index) belonging to CCOC(=O)Nc1ccc(NCc2ccc(F)cc2)nc1N [Compound 1, Flupirtine, reference compound] and report it.
81

Give the measured Tox./Act. (toxicity/activity ratio, safety index) of CCOC(=O)Nc1ccc(SCc2ccc(F)cc2)nc1C .
93
